Molecular target: Histone deacetylase 1 (Homo sapiens, UniProt Q13547)
Sequence (Q13547 whole entry): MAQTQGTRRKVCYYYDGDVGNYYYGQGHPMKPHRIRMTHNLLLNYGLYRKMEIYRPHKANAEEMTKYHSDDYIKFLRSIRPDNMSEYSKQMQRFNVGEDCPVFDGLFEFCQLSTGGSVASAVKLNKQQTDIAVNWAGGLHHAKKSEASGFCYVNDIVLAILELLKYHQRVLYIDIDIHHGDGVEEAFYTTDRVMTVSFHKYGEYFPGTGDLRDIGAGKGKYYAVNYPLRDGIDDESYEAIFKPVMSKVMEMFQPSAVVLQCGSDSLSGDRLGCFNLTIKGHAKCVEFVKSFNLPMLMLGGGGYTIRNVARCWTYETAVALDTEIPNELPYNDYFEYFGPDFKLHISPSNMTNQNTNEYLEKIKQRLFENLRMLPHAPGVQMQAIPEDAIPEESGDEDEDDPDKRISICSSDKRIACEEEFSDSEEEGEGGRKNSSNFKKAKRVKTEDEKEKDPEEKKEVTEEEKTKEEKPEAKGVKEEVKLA
Test: Inhibition of HDAC1 (unknown origin) preincubated for 5 mins followed by substrate addition and measured after 30 mins by multimode microplate reader analysis
readoutKind: IC50 (µM)

// solved cases for IC50 follow
# chemicalStructure, unitsOfMeasure, IC50
rows = [
    ("Cc1cc(C)c(CNC(=O)c2cc(-c3ccc(N4CCN(C(=O)CCCCCC(=O)NO)CC4)nc3)cc3c2cnn3C(C)C)c(=O)[nH]1", "µM", 2.87),
    ("Cc1cc(C)c(CNC(=O)c2cc(-c3ccc(N4CCN(CCCCC(=O)NO)CC4)nc3)cc3c2cnn3C(C)C)c(=O)[nH]1", "µM", 8.22),
    ("Cc1cc(C)c(CNC(=O)c2cc(-c3ccc(NC(=O)CCCCCCC(=O)NO)cc3)cc3c2cnn3C(C)C)c(=O)[nH]1", "µM", 0.32),
]

[P] Cc1cc(C)c(CNC(=O)c2cc(-c3ccc(N4CCN(C(=O)CCCCCCC(=O)NO)CC4)nc3)cc3c2cnn3C(C)C)c(=O)[nH]1
[Q] CCN(c1cc(-c2ccc(N3CCN(c4ncc(C(=O)NO)cn4)CC3)nc2)cc(C(=O)NCc2c(C)cc(C)[nH]c2=O)c1C)C1CCOCC1
Query :: Of P and Q , which shows the smaller IC50 value? Respond with the label that goes with your answer.
Result :: Q
